Tested on: NCI-H23 lung
assayProtocol: NCI-60 one-dose screen, 48 h (100 = growth as untreated, 0 = no growth, -100 = all killed)
measurementParameters: 10 µM unless noted
About 83,000 compounds went through this panel and 20% of them were active in at least one assay; those are over-represented in the sample as a whole.
Task for the reader: assign each of the following compounds its reported growth.
Numbers only, in %.

> print(dat)
                           molecularstring  unitstext  recordednumber
1                             OCCNc1ccccc1          %            95.6
2  C=CCNC(=S)N/C=C(/C(=O)c1ccccc1)c1ccccc1          %            97.4
3                        Cc1ccc(C)c(CCO)c1          %             117
4                      CCCCOC(=O)c1ccccc1O          %             108
5               CCOC(=O)c1ccc(C(C)(C)C)cc1          %             102

Please state growth for every compound in the list that follows.
1. C=CCc1cc(OC)c(OC)c(OC)c1
2. CCCCCC/C=C\CCCCCCCCCc1cc(O)cc(OC)c1O

1: 95.6; 2: 11.2
